Data provenance: PubChem BioAssay

# run description: growth inhibition, single agents and combos, HTB85, cell-based, BGB or cisplatin IC20 combos, synergistic combos for chromothripsis tumors (AID 1671453);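 also: cells exposed for 96 hours before readout; 0% = vehicle DMSO and 100% = high DMSO killing control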
# setup conditions: HTB85 osteosarcoma cells, drug combinations, single agent, at 5 µM, stronger effect = higher value
I'd appreciate it if you could supply inhibition values for the items below.
Answers are plain numbers, in %.

Give measured inhibition for every item shown.
1. COc1nc(N)nc2c1ncn2[C@@H]1O[C@H](CO)[C@@H](O)[C@H]1O
2. CC1OC(n2cc(F)c(=O)[nH]c2=O)C(O)C1O (centres undefined)
3. CC1CN(c2c(F)c(N)c3c(=O)c(C(=O)O)cn(C4CC4)c3c2F)CC(C)N1 (centres undefined)
4. CO[C@H]1/C=C/O[C@@]2(C)Oc3c(C)c(O)c4c(O)c(c5c(c4c3C2=O)=NC2(CCN(CC(C)C)CC2)N=5)NC(=O)/C(C)=C\C=C\[C@H](C)[C@H](O)[C@@H](C)[C@@H](O)[C@@H](C)[C@H](OC(C)=O)[C@@H]1C
5. O=c1cc(-c2ccc(O)cc2)[nH]c(=S)[nH]1
6. Nc1nc(NC2CC2)cc(-c2cccc(Cl)c2Cl)n1
7. CC(Oc1cc(-c2cnn(C3CCNCC3)c2)cnc1N)c1c(Cl)ccc(F)c1Cl (centres undefined)

stdout:
1. -10.5
2. -22
3. 7.58
4. 14.9
5. -1.02
6. 3.83
7. 47.7

Give measured inhibition for every item shown.
1. O=C(CCCCCCC(=O)Nc1ccc(I)cc1)NO
2. Nc1ccn(C2CCC(CO)O2)c(=O)n1 (centres undefined)

stdout:
68.5
-16.7
